- target.entity: T1, recombinant human sPLA2-GIB (mature secreted form of group IB pancreatic phospholipase A2) (human, UniProt P04054 23-148)
- T1 construct: Genbank NP_000919 printed for human PLA2-GIB; also called sPLA2-IB; mature sPLA2-GIB
- assay.remarks: competition ELISA on coated sPLA2-IB; competitor biotinylated 14G9
- Method: Epitope mapping of the #14G9, #1C11, #8G11 and #7A10 mAbs was evaluated by competition ELISA. Biotinylated mAbs #14G9, #1C11, #8G11 or #7A10 were added to sPLA2-GIB or pro-sPLA2-GIB coated plates in the presence of an excess of un-biotinylated mAb. Bound mAbs were then detected with Streptavidin-HRP conjugate. Results were expressed as percentage of signal, after subtraction of the autologous competition, with 0% representing maximum competition and 100% no competition (Table 4).
reported.metric: percentage of signal (%)

binder	assay.value
#1C11 (antibody, IgG1, V domains shown, also called monoclonal antibody 1C11; #1C11 mAb) VH: EVKLQESGPELVKPGASVKISCKVSGYAFSSFWMNWVKQRPGKGLEWIGRIYPGDGDINYNGKFKGKATLTADKSSSTAYMQLSSLTSEDSAVYFCVRGWAWFPYWGQGTLVTVSA VL: EIVLTQSPAITSASLGQRVTISCSATSSVSYVHWYQQKSGTSPKPWIYEISRLASGVPARFSGSGSGTSYSLTISTMEAEDAAIYYCQSWNFPLLSFGAGTKLELKR	1440

These measurements were taken from patent US20210047431A1.
